# Tested on: A673 NR0B1-luciferase reporter, viability-normalised luminescence
# Test: suppressors of NR0B1-promoter luciferase reporter, dose response, EWS/Fli inhibitor project, luciferase luminescence, A673 cells, cherry-pick (AID 686920)
Metric: AC35

1) CO[C@H]1CN(C)C(=O)c2ccc(NC(=O)c3ccc(-c4ccccc4)cc3)cc2OC[C@H](C)NC[C@H]1C | 15 µM
2) C[C@@H]1CN([C@H](C)CO)C(=O)Cc2cc(NC(=O)CCCCCC(=O)Nc3ccccc3N)ccc2O[C@@H]1CN(C)CC1CCCCC1 | 7.74 µM
3) O=C(Sc1cccc2cccnc12)c1ccccc1Br | 16.6 µM

Return the recorded AC35 value; entry: COC(=O)COc1ccc(-c2nccc(-c3ccccn3)n2)cc1 1.5 µM

Let me know recorded AC35 for O=C(NCCc1ccccc1)c1ccccc1NC(=O)C1CCCO1 (centres undefined) , thanks. 6.89 µM

Specify AC35 for CCN1CCS/C1=C\C=C\C1=[N+](CC)CCS1 and stop. 12.3 µM

Please look at this molecule and report its AC35: COc1ccc(S(=O)(=O)N2CC[C@@H]3[C@@H](CO)Nc4ccc(-c5ccc(C#N)cc5)cc4[C@@H]32)cc1 0.625 µM

Indicate its recorded AC35; the molecule in question is C[C@@H]1CN([C@@H](C)CO)S(=O)(=O)c2ccc(C#CC(C)(C)O)cc2O[C@H]1CN(C)Cc1ccc(-c2ccccc2)cc1 2.8 µM

Look up and report measured AC35 for this entry: COc1ccc(-c2ccc3c(c2)[C@H]2[C@H](CCN2S(=O)(=O)c2ccc(OC)cc2)[C@@H](CO)N3C)cc1 4.45 µM

###

Measured AC35, listed per entry.
# Tested on: A673 NR0B1-luciferase reporter, viability-normalised luminescence
# Test: suppressors of NR0B1-promoter luciferase reporter, dose response, EWS/Fli inhibitor project, luciferase luminescence, A673 cells, cherry-pick (AID 686920)

Below are worked cases with known answers.
1) O=C(O)c1ccc(N/N=C/c2cc(Br)cs2)cc1 | 7.22 µM
2) C[C@@H]1CN([C@@H](C)CO)C(=O)c2cc(NC(=O)Nc3ccccc3)ccc2O[C@@H]1CN(C)Cc1ccc(C(=O)Nc2ccccc2N)cc1 | 5.75 µM
3) C=C1C(=O)OC2C1CCC(C)C1C=CC(=O)C12C (stereo not given) | 15.5 µM
4) CCCc1cc(=O)oc2c3c(c4c(c12)OC(C)(C)C=C4)OC(C)C(C)C3O (stereo not given) | 33.3 µM

Here is another compound to look at.
Recall and state the measured AC35 for COC(=O)C[C@@H]1CC[C@@H]2[C@@H](COc3ccc(NC(=O)Nc4ccc(C#N)cc4)cc3C(=O)N2C)O1 . 56.2 µM

###

# System: A673 NR0B1-luciferase reporter, viability-normalised luminescence
# Test: suppressors of NR0B1-promoter luciferase reporter, dose response, EWS/Fli inhibitor project, luciferase luminescence, A673 cells, cherry-pick (AID 686920)
Metric: AC35

Examples with their reported AC35 follow.
1) CC(C)N1C/C(=C/c2cccnc2)C(=O)/C(=C/c2cccnc2)C1 | 10.8 µM
2) O=C(N/N=C/c1cnc(N2CCCCC2)s1)c1ccc(C(F)(F)F)cc1 | 56.8 µM
3) Cc1ccc2nc(-c3ccccc3)nn2c1 | 4.49 µM
4) C/C(=N\NC(=O)c1n[nH]c2c1CCC2)c1cccs1 | 1.78 µM

Quote A673 NR0B1-luciferase reporter, viability-normalised luminescence AC35 for entry O=c1cc(CN2CCN(Cc3ccccc3)CC2)c2ccc(O)c(O)c2o1 . 23.3 µM

Find the measured AC35 of O=c1c2ccccc2oc2cc(C#CC3(O)CCCCC3)ccc12 with A673 NR0B1-luciferase reporter, viability-normalised luminescence as test system. 4.33 µM
